- System: BVDV
SI CC50/EC50 (BVDV) by entry:
MEASURE_NAME: SI CC50/EC50 (BVDV)

- COMPOUND: "COc1ccc(S(=O)(=O)n2cc(CNc3ccc(Br)cc3)c(-c3ccc(Cl)cc3)n2)cc1 [8g]"
  OBS_VALUE: ">8.1"
- COMPOUND: "COc1ccc(S(=O)(=O)n2cc(CNc3ccc(Cl)cc3)c(-c3ccc(Cl)cc3)n2)cc1 [8f]"
  OBS_VALUE: ">12.7"
- COMPOUND: "O=S(=O)(c1ccccc1)n1cc(CNc2ccccc2)c(-c2ccc(Br)cc2)n1 [7e]"
  OBS_VALUE: ">5.1"
- COMPOUND: "COc1ccc(S(=O)(=O)n2cc(CNc3ccc(Br)cc3)c(-c3ccc(Br)cc3)n2)cc1 [8c]"
  OBS_VALUE: ">4.4"
